Collected EC50 values appear next to each entry.
Molecular target: Myt1 kinase (CDK1 Thr14 phosphorylation in DAOY medulloblastoma cells) (Homo sapiens, UniProt Q99640)
Construct: pCDK1 Thr14 AlphaLISA read-out
Sequence (Q99640 whole entry): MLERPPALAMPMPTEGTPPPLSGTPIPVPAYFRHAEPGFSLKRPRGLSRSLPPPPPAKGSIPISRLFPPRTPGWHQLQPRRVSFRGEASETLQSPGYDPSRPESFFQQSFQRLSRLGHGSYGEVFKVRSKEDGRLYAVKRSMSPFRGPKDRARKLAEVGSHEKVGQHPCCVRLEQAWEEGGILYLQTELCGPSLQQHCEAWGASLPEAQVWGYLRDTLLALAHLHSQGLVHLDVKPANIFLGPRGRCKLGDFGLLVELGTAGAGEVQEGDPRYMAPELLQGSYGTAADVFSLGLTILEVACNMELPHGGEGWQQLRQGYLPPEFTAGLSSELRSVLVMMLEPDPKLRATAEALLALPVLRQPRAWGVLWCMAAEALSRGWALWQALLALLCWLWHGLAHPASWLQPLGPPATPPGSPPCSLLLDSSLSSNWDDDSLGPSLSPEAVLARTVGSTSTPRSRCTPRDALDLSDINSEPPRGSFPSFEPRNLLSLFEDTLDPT
Assay: AlphaLISA assay, Myt1 kinase target engagement (phospho-CDK1 Thr14) in DAOY cells
Assay type: cell-based
Conditions: 4 h treatment, read-out: CDK1 Thr14 Phosphorylation EC50
MEASURED ENDPOINT: EC50

C=CCn1c(=O)c2cnc(Nc3ccc(OCC)cc3)nc2n1-c1cccc(OC2CCN(C)CC2)n1 ... 200 to 500 nM
C=CCn1c(=O)c2cnc(Nc3ccc4ccoc4c3)nc2n1-c1cccc(OC2CCN(C)CC2)n1 ... < 200 nM
C=CCn1c(=O)c2cnc(Nc3ccc(OCC(C)C)cc3)nc2n1-c1cccc(OC2CCN(C)CC2)n1 ... 500 to 1000 nM
C=CCn1c(=O)c2cnc(Nc3ccc(N4CCOCC4)c(C)c3)nc2n1-c1cccc(OC2CCN(C)CC2)n1 ... < 200 nM
C=CCn1c(=O)c2cnc(Nc3ccc4c(cnn4C)c3)nc2n1-c1cccc(OC2CCN(CC)CC2)n1 ... 500 to 1000 nM
C=CCn1c(=O)c2cnc(Nc3ccc4sncc4c3)nc2n1-c1cccc(OC2CCN(C)CC2)n1 ... 200 to 500 nM
C=CCn1c(=O)c2cnc(Nc3ccc(Cl)cc3)nc2n1-c1cccc(OC2CCNCC2)n1 ... 200 to 500 nM
C=CCn1c(=O)c2cnc(Nc3ccc(OCC(F)(F)F)cc3)nc2n1-c1ccnc(OC2CCN(C)CC2)n1 ... > 1000 nM
C=CCn1c(=O)c2cnc(Nc3cnn(C)c3)nc2n1-c1cccc(OC2CC3CCCC(C2)N3C)n1 (centres unmarked) ... > 1000 nM
C=CCn1c(=O)c2cnc(Nc3ccc4c(ccn4C)c3)nc2n1-c1cccc(OC2CCNCC2)n1 ... 200 to 500 nM
C=CCn1c(=O)c2cnc(Nc3ccc4nn(C)cc4c3)nc2n1-c1cccc(OC2CCN(C)CC2)n1 ... < 200 nM
C=CCn1c(=O)c2cnc(Nc3ccc4c(c3)OCO4)nc2n1-c1cccc(OC2CCN(C)CC2)n1 ... 200 to 500 nM
C=CCn1c(=O)c2cnc(Nc3ccc(C)nc3)nc2n1-c1cccc(OC2CCN(C)CC2)n1 ... 500 to 1000 nM
C=CCn1c(=O)c2cnc(Nc3ccc(Cl)cc3)nc2n1-c1cccc(OC2CCN(C)CC2)n1 ... 200 to 500 nM
C=CCn1c(=O)c2cnc(Nc3ccc4occc4c3)nc2n1-c1cccc(OC2CCN(C)CC2)n1 ... < 200 nM
C=CCn1c(=O)c2cnc(Nc3ccc4ncsc4c3)nc2n1-c1cccc(OC2CCN(C)CC2)n1 ... 200 to 500 nM
C=CCn1c(=O)c2cnc(Nc3ccc4c(cnn4C)c3)nc2n1-c1ccnc(NC2CCN(C)CC2)n1 ... > 1000 nM
C=CCn1c(=O)c2cnc(Nc3ccc(N4CCS(=O)(=O)CC4)cc3)nc2n1-c1cccc(OC2CCN(C)CC2)n1 ... > 1000 nM
C=CCn1c(=O)c2cnc(Nc3cccc(C)c3)nc2n1-c1cccc(OC2CCN(C)CC2)n1 ... 200 to 500 nM
C=CCn1c(=O)c2cnc(Nc3ccc(OCC)cc3)nc2n1-c1cccc(OC2CCNCC2)n1 ... 500 to 1000 nM
C=CCn1c(=O)c2cnc(Nc3ccc(OCC(F)(F)F)cc3)nc2n1-c1cccc(OC2CCN(C)CC2)n1 ... 200 to 500 nM
C=CCn1c(=O)c2cnc(Nc3ccc4c(cnn4C)c3)nc2n1-c1cccc(OC2CCN(C)CC2)n1 ... < 200 nM
C=CCn1c(=O)c2cnc(Nc3ccc4nsnc4c3)nc2n1-c1cccc(OC2CCN(C)CC2)n1 ... 200 to 500 nM
